Numbers sourced from patent US9434734B2.

Listed next: entries and their corresponding melting point.
assay.metric: melting point

1. COc1ccc(-c2ccc3c(=O)n(C)c4cc(-c5cnn(C)c5)nn4c3c2)cc1 | 211 to 213 °C
2. Cc1nc(N)ccc1-c1ccc2c(=O)n(C)c3cc(-c4ccccc4)nn3c2c1.Cl | 218 to 220 °C
3. Cc1n[nH]c(C)c1-c1ccc2c(=O)n(C)c3cc(-c4ccccc4)nn3c2c1 | > 250 °C
4. Cc1cc(-c2cc3n(C)c(=O)c4ccc(-c5c[nH]nc5C(F)(F)F)cc4n3n2)cc(C)n1.Cl | > 250 °C

====

Counter-ions that a name gives are not always drawn.
melting point values for the molecules below.
assay.metric: melting point

1. Cl.Cn1c(=O)c2ccc(-c3cccnc3)cc2n2nc(C3CCOCC3)cc12 | 202 to 224 °C
2. Cl.Cn1c(=O)c2ccc(-c3ccc(N)nc3)cc2n2nc(C3CC3)cc12 | > 250 °C
3. Cl.Cn1c(=O)c2ccc(-c3ccc(N)nc3)cc2n2nc(-c3ccccc3)cc12 | 241 to 244 °C
4. COc1cccc(-c2ccc3c(=O)n(C)c4cc(-c5ccccc5)nn4c3c2)c1 | 182 to 185 °C
5. Cl.Cn1cc(-c2cc3n(C)c(=O)c4ccc(-c5ccc(N)nc5)cc4n3n2)cn1 | 217 to 228 °C
6. Cc1cc(-c2ccc3c(=O)n(C)c4cc(-c5ccccc5)cn4c3c2)cc(C)n1.Cl | > 250 °C
7. Cc1cc(-c2ccc3c(=O)n(C)c4cc(-c5ccccc5)nn4c3c2)cnc1N.Cl | 226 to 227 °C
8. Cc1cc(N)nc(C)c1-c1ccc2c(=O)n(C)c3cc(-c4ccccc4)nn3c2c1.Cl | > 250 °C
9. Cc1cc(-c2ccc3c(=O)n(C)c4cc(-c5ccnc(C(F)(F)F)c5)nn4c3c2)ccn1.Cl | > 250 °C
10. COCCc1cc2n(C)c(=O)c3ccc(-c4cc(C)nc(C)c4)cc3n2n1.Cl | 241 to 245 °C
11. CCn1c(=O)c2ccc(-c3cc(C)nc(C)c3)cc2n2nc(C3CCCC3)cc12.Cl | > 250 °C
12. Cn1c(=O)c2ccc(-c3ccnc(F)c3)cc2n2nc(-c3ccnc(C(F)(F)F)c3)cc12 | > 250 °C
13. Cc1n[nH]c(C)c1-c1ccc2c(=O)n(C)c3cc(-c4ccnc(C(F)(F)F)c4)nn3c2c1 | > 250 °C
14. Cl.Nc1ccc(-c2ccc3c(=O)n(CC(F)F)c4cc(C5CCOCC5)nn4c3c2)cn1 | > 250 °C
15. Cn1cc(-c2cc3n(C)c(=O)c4ccc(-c5ccccc5)cc4n3n2)cn1 | 228 to 231 °C
16. Cl.Cn1c(=O)c2ccc(-c3ccc(N)nc3)cc2n2nc(C3CCS(=O)(=O)CC3)cc12 | > 250 °C
17. Cn1c(=O)c2ccc(-c3cccc(-c4nn[nH]n4)c3)cc2n2nc(C3CCOCC3)cc12 (as salt: sodium) | 219 to 227 °C
